Biological target: human Edg-1 (S1P1) (Homo sapiens, UniProt P21453)
Sequence (P21453 whole entry): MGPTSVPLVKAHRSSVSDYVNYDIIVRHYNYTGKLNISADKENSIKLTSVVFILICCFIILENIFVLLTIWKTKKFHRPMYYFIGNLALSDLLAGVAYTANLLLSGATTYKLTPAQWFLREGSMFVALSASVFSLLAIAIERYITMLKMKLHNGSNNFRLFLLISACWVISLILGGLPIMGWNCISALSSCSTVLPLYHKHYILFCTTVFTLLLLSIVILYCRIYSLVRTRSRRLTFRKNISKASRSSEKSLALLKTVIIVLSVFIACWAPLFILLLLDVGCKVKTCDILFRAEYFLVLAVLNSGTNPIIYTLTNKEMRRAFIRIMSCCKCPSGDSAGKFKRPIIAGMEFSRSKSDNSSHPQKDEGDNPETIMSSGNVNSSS
Test: S1P1 binding assay: inhibition of [33P]-S1P binding to membrane fraction of HEK-293 cells transferred with the human Edg-1 (S1P1) gene
Conditions: [33P]-S1P 0.1 nM, human Edg-1 (S1P1) HEK-293 membrane fraction, 1 h at 30° C.; read-out: IC50 (concentration at which binding in the absence of the test compound was inhibited by 50%)
Description: The membrane fraction was obtained by treating the cells with a solubilizing buffer (1 mM Tris/HCl, pH 7.2) for 10 minutes on ice, centrifuging at 1000×g for 5 minutes to remove insoluble fractions, and then centrifuging at 40000×g for 30 minutes at 4° C. […] The same procedure was carried out in the absence of the test compound, and the amount (B) of [^33P]-S1P bound was calculated. […]
So basically every entry gets a class from its IC50, ranges being lower band = under 0.007 µM, central band = from 0.007 µM up to 0.02 µM, upper band = 0.02 µM and over

Example entries and their recorded answers appear below.
INSERT INTO assay_data (compound, targetofassay, assignedlabel) VALUES
  ('CCn1c(Oc2ccc(OCCN3CCOCC3)cc2)nnc1[C@@H](C)NS(=O)(=O)c1ccc(Cl)c(Cl)c1', 'human Edg-1 (S1P1) (Homo sapiens, UniProt P21453)', 'central band'),
  ('CCn1c(Nc2ccc(C)cc2)nnc1[C@@H](C)NS(=O)(=O)c1ccc(Cl)c(Cl)c1', 'human Edg-1 (S1P1) (Homo sapiens, UniProt P21453)', 'upper band'),
  ('CCn1c(Oc2ccccc2)nnc1[C@@H](C)NS(=O)(=O)c1ccc(Cl)c(Cl)c1', 'human Edg-1 (S1P1) (Homo sapiens, UniProt P21453)', 'upper band'),
  ('CCC(NS(=O)(=O)c1ccc(Cl)c(Cl)c1)c1nnc(Oc2ccc(C)cc2)n1CC (centres unmarked)', 'human Edg-1 (S1P1) (Homo sapiens, UniProt P21453)', 'central band'),
  ('CCn1c(Oc2cccc(N(C)C)c2)nnc1[C@@H](C)NS(=O)(=O)c1ccc(Cl)c(Cl)c1', 'human Edg-1 (S1P1) (Homo sapiens, UniProt P21453)', 'lower band');

Which bin should I file `CCn1c(Oc2ccc3ccccc3c2)nnc1[C@@H](C)NS(=O)(=O)c1ccc(Cl)c(Cl)c1` under?
upper band

Which bin should I file `CCn1c(Oc2cccc(N3CCN(C)CC3)c2)nnc1[C@@H](C)NS(=O)(=O)c1ccc2c(c1)CCC2` under?
central band

Which bin should I file CCn1c(Oc2cccc(N3CCN(C)CC3)c2)nnc1[C@@H](C)NS(=O)(=O)c1ccc2c(I)cccc2c1 [Compound 691] under?
lower band

Which bin should I file `CCn1c(Oc2ccc(N3CCCC3)cc2)nnc1[C@@H](C)NS(=O)(=O)c1ccc(Cl)c(Cl)c1` under?
lower band

Which bin should I file `CCn1c(Oc2cccc(N3CCCCC3)c2)nnc1[C@@H](C)NS(=O)(=O)c1ccc(Cl)c(Cl)c1` under?
lower band
